# Procedure Details: Ratio of ED50 for antitumor activity against mouse L1210 cells allografted in ip dosed mouse to LD10 for mouse
Readout: Ratio
Would you mind answering with just the numeric figure?

Some molecules with known Ratio results, for comparison:
1. O=NN(CCCl)C(=O)N[C@H]1CC[C@H](NC(=O)N(CCCl)N=O)CC1 ... 0.3
2. C[C@@H]1CCC[C@@H](NC(=O)N(CCCl)N=O)C1 (relative stereo) ... 0.4
3. O=NN(CCCl)C(=O)N[C@H]1CC[C@@H](C(=O)O)CC1 ... 0.6
4. O=NN(CCCl)C(=O)NC1CCC(=O)NC1=O (stereo not given) ... 0.4
5. O=NN(CCF)C(=O)NC1CCS(=O)(=O)CC1 ... 0.3
6. C[C@H]1S(=O)(=O)C[C@@H](NC(=O)N(CCCl)N=O)CS1(=O)=O ... 0.6

# get_value(readout='Ratio', item= O=NN(CCCl)C(=O)N[C@H]1CCCC[C@@H]1Cl (relative stereo) )
0.6

# get_value(readout='Ratio', item= O=NN(CCCl)C(=O)N[C@H]1C(O)O[C@H](CO)[C@@H](O)[C@@H]1O (stereo not given in full) )
0.4

# get_value(readout='Ratio', item= C[C@H]1CC[C@H](NC(=O)N(CCCl)N=O)CC1 )
0.4

# get_value(readout='Ratio', item= O=NN(CCCl)C(=O)N[C@H]1CC[C@@H](CC(=O)O)CC1 )
0.4

# get_value(readout='Ratio', item= O=NN(CCCl)C(=O)N[C@H]1CC[C@H](O)CC1 )
0.4

# get_value(readout='Ratio', item= O=NN(CCCl)C(=O)NC1CSCSC1 )
0.3

====

# Procedure Details: Ratio of ED50 for antitumor activity against mouse L1210 cells allografted in ip dosed mouse to LD10 for mouse
Readout: Ratio
Would you mind answering with just the numeric figure?

Some compounds with known Ratio results, for comparison:
1. O=NN(CCCl)C(=O)NC1C2CC3CC(C2)CC1C3 (stereo not drawn) ... 0.6
2. O=NN(CCCl)C(=O)N[C@H]1CC[C@H](CC(=O)O)CC1 ... 0.3
3. O=NN(CCCl)C(=O)N[C@H]1CC[C@H](C(=O)O)CC1 ... 0.6
4. CC(C)(C)[C@H]1CC[C@H](NC(=O)N(CCCl)N=O)CC1 ... 0.6
5. C[C@H]1CC[C@H](NC(=O)N(CCF)N=O)CC1 ... 0.6

# get_value(readout='Ratio', item= C[C@H]1SC[C@@H](NC(=O)N(CCCl)N=O)CS1 )
0.4

# get_value(readout='Ratio', item= C[C@H]1S(=O)(=O)C[C@H](NC(=O)N(CCCl)N=O)CS1(=O)=O )
0.4

# get_value(readout='Ratio', item= O=NN(CCCl)C(=O)N[C@H]1CC[C@H](CCl)CC1 )
0.6

meta.source: ChEMBL document CHEMBL3271979
